# assayed.system: IL17-RE-IL-17C (Homo sapiens, UniProt Q8NFR9+Q9P0M4)
# Sequence (Q9P0M4 whole entry): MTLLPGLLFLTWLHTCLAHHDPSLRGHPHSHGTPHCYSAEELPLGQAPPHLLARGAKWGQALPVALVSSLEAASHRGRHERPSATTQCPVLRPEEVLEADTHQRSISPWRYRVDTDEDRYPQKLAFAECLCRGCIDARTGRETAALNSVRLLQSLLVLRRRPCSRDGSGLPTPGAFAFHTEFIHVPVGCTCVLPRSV
# Sequence (Q8NFR9 whole entry): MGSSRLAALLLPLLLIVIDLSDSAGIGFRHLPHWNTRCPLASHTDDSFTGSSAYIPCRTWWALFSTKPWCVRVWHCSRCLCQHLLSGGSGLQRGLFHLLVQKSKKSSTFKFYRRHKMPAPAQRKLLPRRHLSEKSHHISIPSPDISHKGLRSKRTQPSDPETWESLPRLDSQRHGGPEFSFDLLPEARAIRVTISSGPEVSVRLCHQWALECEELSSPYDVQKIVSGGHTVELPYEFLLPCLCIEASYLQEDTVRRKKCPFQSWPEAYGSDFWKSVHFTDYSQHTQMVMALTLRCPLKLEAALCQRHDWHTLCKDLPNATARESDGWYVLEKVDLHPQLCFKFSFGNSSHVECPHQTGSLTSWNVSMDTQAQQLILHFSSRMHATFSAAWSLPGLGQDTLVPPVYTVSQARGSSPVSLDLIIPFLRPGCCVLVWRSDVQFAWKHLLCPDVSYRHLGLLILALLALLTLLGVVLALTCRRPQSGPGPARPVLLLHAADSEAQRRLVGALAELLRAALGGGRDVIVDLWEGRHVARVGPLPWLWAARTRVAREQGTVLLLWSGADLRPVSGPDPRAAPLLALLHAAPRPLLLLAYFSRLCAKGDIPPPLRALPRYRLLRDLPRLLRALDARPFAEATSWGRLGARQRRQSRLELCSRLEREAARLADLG
# protocol.details: Inhibition of IL-17C/IL-17RE interaction (unknown origin) incubated for 1.5 hrs by ELISA method
# Assay type: protein-complex assay
Positions of bridges follow the written chain, without caps; N, C: chain ends. Residues, ends and D or L forms follow the SMILES beside them.
Consider the following compounds; for each one, report its IC50.

Requested field: IC50. Item: CC[C@H](C)[C@@H]1NC(=O)[C@H](Cc2c[nH]c3ccccc23)NC(=O)[C@H](C)NC(=O)[C@H](CC(=O)O)NC(=O)[C@H](Cc2ccccc2)NC(=O)[C@H](Cc2c[nH]cn2)NC(=O)[C@H](Cc2ccc(O)cc2)NC(=O)CSC[C@@H](C(=O)NCC(N)=O)NC(=O)[C@H](CC(C)C)NC(=O)[C@H](CO)NC(=O)[C@H](CCCNC(=N)N)NC(=O)[C@H](C)NC1=O ({CH2CO}-YHFDAWIARSLCG-NH2; thioether N-12)
> 30000 nM

// same read-out, input: CC[C@H](C)[C@@H]1NC(=O)[C@H](C)NC(=O)[C@H](Cc2ccc(O)cc2)NC(=O)[C@H](Cc2ccc(O)cc2)NC(=O)[C@H](Cc2c[nH]cn2)NC(=O)[C@H](Cc2c[nH]cn2)NC(=O)[C@H](Cc2ccc(O)cc2)NC(=O)CSC[C@@H](C(=O)NCC(N)=O)NC(=O)CNC(=O)[C@H](CC(C)C)NC(=O)[C@H](CCC(=O)O)NC(=O)CNC(=O)[C@H](Cc2ccc(O)cc2)NC(=O)[C@H](CC(C)C)NC1=O ({CH2CO}-YHHYYAILYGELGCG-NH2; thioether N-14)
400 nM

// same read-out, input: CC[C@H](C)[C@@H]1NC(=O)[C@H](CCCNC(=N)N)NC(=O)[C@H](C)NC(=O)[C@H](Cc2ccc(O)cc2)NC(=O)[C@H](Cc2c[nH]cn2)NC(=O)[C@H](Cc2c[nH]cn2)NC(=O)[C@H](Cc2ccc(O)cc2)NC(=O)CSC[C@@H](C(=O)NCC(N)=O)NC(=O)CNC(=O)[C@H](CC(C)C)NC(=O)[C@H](CCC(=O)O)NC(=O)CNC(=O)[C@H](Cc2ccc(O)cc2)NC(=O)[C@H](CC(C)C)NC1=O ({CH2CO}-YHHYARILYGELGCG-NH2; thioether N-14)
> 30000 nM

// same read-out, input: CC(C)C[C@@H]1NC(=O)[C@H](Cc2c[nH]c3ccccc23)NC(=O)[C@H](CC(N)=O)NC(=O)[C@H](CC(=O)O)NC(=O)[C@H](Cc2ccccc2)NC(=O)[C@H](Cc2c[nH]cn2)NC(=O)[C@H](Cc2ccc(O)cc2)NC(=O)CSC[C@@H](C(=O)NCC(N)=O)NC(=O)[C@H](CC(C)C)NC(=O)[C@H](Cc2ccccc2)NC(=O)[C@H](C(C)C)NC(=O)[C@H](CCCNC(=N)N)NC1=O ({CH2CO}-YHFDNWLRVFLCG-NH2; thioether N-12)
> 30000 nM

// same read-out, input: CC[C@H](C)[C@@H]1NC(=O)[C@H](CO)NC(=O)[C@H](Cc2ccc(O)cc2)NC(=O)[C@H](Cc2ccc(O)cc2)NC(=O)[C@H](Cc2c[nH]cn2)NC(=O)[C@H](Cc2c[nH]cn2)NC(=O)[C@H](Cc2ccc(O)cc2)NC(=O)CSC[C@@H](C(=O)NCC(N)=O)NC(=O)CNC(=O)[C@H](CC(C)C)NC(=O)[C@H](CCC(=O)O)NC(=O)CNC(=O)[C@H](Cc2ccc(O)cc2)NC(=O)[C@H](CC(C)C)NC1=O ({CH2CO}-YHHYYSILYGELGCG-NH2; thioether N-14)
2520 nM

// same read-out, input: CC(C)C[C@@H]1NC(=O)[C@H](CO)NC(=O)CNC(=O)[C@H](Cc2ccc(O)cc2)NC(=O)[C@H](CC(C)C)NC(=O)[C@H](CO)NC(=O)[C@H](CCC(N)=O)NC(=O)[C@H](Cc2ccc(O)cc2)NC(=O)[C@H](Cc2ccc(O)cc2)NC(=O)[C@H](C(C)C)NC(=O)[C@H](Cc2c[nH]cn2)NC(=O)[C@H](Cc2ccc(O)cc2)NC(=O)CSC[C@@H](C(=O)NCC(N)=O)NC(=O)CNC1=O ({CH2CO}-YHVYYQSLYGSLGCG-NH2; thioether N-14)
7.9 nM

// same read-out, input: CC[C@H](C)[C@@H]1NC(=O)[C@H](CCCNC(=N)N)NC(=O)[C@H](Cc2ccc(O)cc2)NC(=O)[C@H](Cc2ccc(O)cc2)NC(=O)[C@@H]2CCCN2C(=O)[C@H](Cc2c[nH]cn2)NC(=O)[C@H](Cc2ccc(O)cc2)NC(=O)CSC[C@@H](C(=O)NCC(N)=O)NC(=O)CNC(=O)[C@H](CC(C)C)NC(=O)[C@H](CCC(=O)O)NC(=O)CNC(=O)[C@H](Cc2ccc(O)cc2)NC(=O)[C@H](CC(C)C)NC1=O ({CH2CO}-YHPYYRILYGELGCG-NH2; thioether N-14)
> 30000 nM

// same read-out, input: CC(C)C[C@@H]1NC(=O)[C@H](CO)NC(=O)CNC(=O)[C@H](Cc2ccc(O)cc2)NC(=O)[C@H](CC(C)C)NC(=O)[C@H](CO)NC(=O)[C@H](C(C)C)NC(=O)[C@H](Cc2ccc(O)cc2)NC(=O)[C@H](Cc2ccc(O)cc2)NC(=O)[C@H](CCC(N)=O)NC(=O)[C@H](Cc2c[nH]cn2)NC(=O)[C@H](Cc2ccc(O)cc2)NC(=O)CSC[C@@H](C(=O)NCC(N)=O)NC(=O)CNC1=O ({CH2CO}-YHQYYVSLYGSLGCG-NH2; thioether N-14)
8.1 nM

// same read-out, input: CC(C)C[C@@H]1NC(=O)[C@H](Cc2c[nH]c3ccccc23)NC(=O)[C@H](C)NC(=O)[C@H](CC(=O)O)NC(=O)[C@H](Cc2ccccc2)NC(=O)[C@H](Cc2c[nH]cn2)NC(=O)[C@H](Cc2ccc(O)cc2)NC(=O)CSC[C@@H](C(=O)NCC(=O)O)NC(=O)[C@H](CC(C)C)NC(=O)[C@H](Cc2ccc(O)cc2)NC(=O)[C@H](CC(=O)O)NC(=O)[C@H](CCCCN)NC1=O ({CH2CO}-YHFDAWLKDYLCG-OH; thioether N-12)
> 30000 nM

###

# assayed.system: IL17-RE-IL-17C (Homo sapiens, UniProt Q8NFR9+Q9P0M4)
# Sequence (Q9P0M4 whole entry): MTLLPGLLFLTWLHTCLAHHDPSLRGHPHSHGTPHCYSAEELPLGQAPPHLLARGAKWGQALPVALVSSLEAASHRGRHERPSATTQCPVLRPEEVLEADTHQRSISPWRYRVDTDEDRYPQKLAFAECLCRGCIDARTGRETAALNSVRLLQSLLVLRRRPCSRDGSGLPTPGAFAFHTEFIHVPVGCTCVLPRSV
# Sequence (Q8NFR9 whole entry): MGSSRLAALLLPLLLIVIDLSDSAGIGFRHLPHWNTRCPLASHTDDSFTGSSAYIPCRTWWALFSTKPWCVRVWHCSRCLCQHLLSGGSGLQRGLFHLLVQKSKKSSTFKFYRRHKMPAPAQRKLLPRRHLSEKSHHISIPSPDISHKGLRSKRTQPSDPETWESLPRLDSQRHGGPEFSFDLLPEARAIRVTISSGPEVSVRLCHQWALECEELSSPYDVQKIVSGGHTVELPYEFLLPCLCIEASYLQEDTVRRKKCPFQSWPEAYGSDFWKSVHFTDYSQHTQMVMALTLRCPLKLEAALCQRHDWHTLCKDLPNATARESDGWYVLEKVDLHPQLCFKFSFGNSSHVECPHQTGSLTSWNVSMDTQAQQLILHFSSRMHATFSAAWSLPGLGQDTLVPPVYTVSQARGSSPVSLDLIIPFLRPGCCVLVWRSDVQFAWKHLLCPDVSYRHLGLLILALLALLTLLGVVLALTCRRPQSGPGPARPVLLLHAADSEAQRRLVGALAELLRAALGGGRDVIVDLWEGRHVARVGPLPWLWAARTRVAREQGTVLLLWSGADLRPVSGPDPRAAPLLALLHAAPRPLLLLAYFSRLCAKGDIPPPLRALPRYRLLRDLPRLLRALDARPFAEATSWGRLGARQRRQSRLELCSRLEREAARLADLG
# protocol.details: Inhibition of IL-17C/IL-17RE interaction (unknown origin) incubated for 1.5 hrs by ELISA method
Positions of bridges follow the written chain, without caps; N, C: chain ends. Residues, ends and D or L forms follow the SMILES beside them.
readout.label: IC50 (µM)
Please reply with the bare figure in µM and do not write the unit itself.

// fetch IL17-RE-IL-17C (Homo sapiens, UniProt Q8NFR9+Q9P0M4) IC50 for CC[C@H](C)[C@@H]1NC(=O)[C@H](CCCNC(=N)N)NC(=O)[C@H](Cc2ccc(O)cc2)NC(=O)[C@H](Cc2ccc(O)cc2)NC(=O)[C@H](Cc2c[nH]cn2)NC(=O)[C@H](Cc2c[nH]cn2)NC(=O)[C@H](Cc2ccc(O)cc2)NC(=O)CSC[C@@H](C(=O)NCC(N)=O)NC(=O)CNC(=O)[C@H](CC(C)C)NC(=O)[C@H](C)NC(=O)CNC(=O)[C@H](Cc2ccc(O)cc2)NC(=O)[C@H](CC(C)C)NC1=O ({CH2CO}-YHHYYRILYGALGCG-NH2; thioether N-14)
0.18

Data origin, for the record: ChEMBL document CHEMBL5360618
